- System: Bcap37
- Protocol description: Growth inhibition of human Bcap37 cells after 72 hrs by MTT assay
- Format: functional, cell-based
- Applied conditions: Bcap37, 72 h
Consider the following compounds; for each one, report its pIC50.
Scale explanation: pIC50 corresponds to minus log10 of a concentration expressed in moles per litre.

Value sought: pIC50, system Bcap37, item O=C(/C=C/c1cc([N+](=O)[O-])ccc1Cl)/C=C/c1ccccc1Oc1ncnc2ccc(Cl)cc12 . Result: 5.07

Known value: Bcap37 pIC50 of the compound O=C(/C=C/c1ccc(Cl)c([N+](=O)[O-])c1)/C=C/c1ccccc1Oc1ncnc2ccc(Cl)cc12 equals 4.91

Recorded pIC50 for O=C(/C=C/c1ccc(Oc2ncnc3ccc(Cl)cc23)cc1)/C=C/c1c(Cl)cccc1Cl on Bcap37 was 4.86

Observed pIC50 on Bcap37, entry O=C(/C=C/c1ccccc1Oc1ncnc2ccc(Cl)cc12)/C=C/c1c(Cl)cccc1Cl , equals 4.95

For the compound O=C(/C=C/c1ccc(Oc2ncnc3ccc(Cl)cc23)cc1)/C=C/c1cc([N+](=O)[O-])ccc1Cl , the measured pIC50 on Bcap37 was 5.01

Let me check: O=C(/C=C/c1ccccc1Oc1ncnc2ccc(Cl)cc12)/C=C/c1cccc(Cl)c1Cl , system Bcap37, measured pIC50 is 4.94

Origin of values: ChEMBL document CHEMBL3351988
